Reference source: patent US20100216715A1

- target-system: T1, human beta-Klotho (human, UniProt Q86Z14 1-1044)
- T1 sequence (looked up): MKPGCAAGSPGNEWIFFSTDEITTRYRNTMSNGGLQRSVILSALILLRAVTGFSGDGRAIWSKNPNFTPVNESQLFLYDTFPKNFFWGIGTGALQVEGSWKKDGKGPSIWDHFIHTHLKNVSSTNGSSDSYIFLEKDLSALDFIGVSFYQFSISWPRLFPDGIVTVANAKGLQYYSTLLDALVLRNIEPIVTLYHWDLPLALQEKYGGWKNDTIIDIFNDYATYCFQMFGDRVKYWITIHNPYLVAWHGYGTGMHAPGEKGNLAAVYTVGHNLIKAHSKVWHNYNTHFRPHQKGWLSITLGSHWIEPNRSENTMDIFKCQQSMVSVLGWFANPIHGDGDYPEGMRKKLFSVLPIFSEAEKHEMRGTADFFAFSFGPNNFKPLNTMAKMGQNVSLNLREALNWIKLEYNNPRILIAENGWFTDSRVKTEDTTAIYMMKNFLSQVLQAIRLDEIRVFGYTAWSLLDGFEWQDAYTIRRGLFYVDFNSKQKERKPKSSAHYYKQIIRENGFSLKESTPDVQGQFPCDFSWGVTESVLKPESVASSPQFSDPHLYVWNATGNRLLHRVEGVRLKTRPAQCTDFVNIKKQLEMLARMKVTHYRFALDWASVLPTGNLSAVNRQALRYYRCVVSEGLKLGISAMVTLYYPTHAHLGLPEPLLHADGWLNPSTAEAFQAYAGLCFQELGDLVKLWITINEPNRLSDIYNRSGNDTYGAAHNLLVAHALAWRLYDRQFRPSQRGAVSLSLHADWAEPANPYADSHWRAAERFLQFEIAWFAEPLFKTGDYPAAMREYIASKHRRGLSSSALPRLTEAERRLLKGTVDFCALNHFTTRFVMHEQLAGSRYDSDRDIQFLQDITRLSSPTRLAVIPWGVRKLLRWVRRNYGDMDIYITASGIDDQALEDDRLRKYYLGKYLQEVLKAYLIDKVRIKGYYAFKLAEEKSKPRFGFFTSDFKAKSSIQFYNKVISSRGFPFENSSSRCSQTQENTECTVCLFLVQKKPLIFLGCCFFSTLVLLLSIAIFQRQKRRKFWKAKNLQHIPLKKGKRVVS
- assay-text: cell-based or functional assay
Label rule, in plain words: pERK-HEK293-Beta-klotho without HSA [EC50 (nM)] Median Value of 7 nM and up is condition met, under 7 nM is condition not met.

INSERT INTO assay_data (binder, class_label) VALUES
  ('(K56R, K59R, K69R, K122R) Gly-FGF21 (ligand) GHPIPDSSPLLQFGGQVRQRYLYTDDAQQTEAHLEIREDGTVGGAADQSPESLLQLRALRPGVIQILGVRTSRFLCQRPDGALYGSLHFDPEACSFRELLLEDGYNVYQSEAHGLPLHLPGNRSPHRDPAPRGPARFLPLPGLPPALPEPPGILAPQPPDVGSSDPLSMVGPSQGRSPSYAS', 'condition met'),
  ('A26E Met-FGF21 (ligand) MHPIPDSSPLLQFGGQVRQRYLYTDDEQQTEAHLEIREDGTVGGAADQSPESLLQLKALKPGVIQILGVKTSRFLCQRPDGALYGSLHFDPEACSFRELLLEDGYNVYQSEAHGLPLHLPGNKSPHRDPAPRGPARFLPLPGLPPALPEPPGILAPQPPDVGSSDPLSMVGPSQGRSPSYAS', 'condition not met'),
  ('(L166F, S167G, M168L, 169aT, P171L, S172E, Q173A, G174V, Y179F, A180E, S181K) Ser-FGF21 (ligand) SHPIPDSSPLLQFGGQVRQRYLYTDDAQQTEAHLEIREDGTVGGAADQSPESLLQLKALKPGVIQILGVKTSRFLCQRPDGALYGSLHFDPEACSFRELLLEDGYNVYQSEAHGLPLHLPGNKSPHRDPAPRGPARFLPLPGLPPALPEPPGILAPQPPDVGSSDPFGLVTGLEAVRSPSFEK', 'condition not met'),
  ('[-5G, -4S, -3G, -2S, -1G, K56R, 59R, 69R, 102E, 121Q, 122R, 168L] FGF21 derivative of Example 52 (ligand, N-alpha-1-[2-(2-{2-[2-(2-{2-[(S)-4-carboxy-4-(17-carboxy-heptadecanoylamino)-butyrylamino]-ethoxy}-ethoxy)-acetylamino]-ethoxy}-ethoxy)-acetyl] on the N-terminal alpha amino group) GSGSGHPIPDSSPLLQFGGQVRQRYLYTDDAQQTEAHLEIREDGTVGGAADQSPESLLQLRALRPGVIQILGVRTSRFLCQRPDGALYGSLHFDPEACSFRELLLEEGYNVYQSEAHGLPLHLPGQRSPHRDPAPRGPARFLPLPGLPPALPEPPGILAPQPPDVGSSDPLSLVGPSQGRSPSYAS', 'condition met'),
  ('(K56R, K59R, K69R, K122R) Met-FGF21 derivative of Example 7 (ligand, N-alpha-1-[2-(2-{2-[2-(2-{2-[(S)-4-carboxy-4-(17-carboxy-heptadecanoylamino)-butyrylamino]-ethoxy}-ethoxy)-acetylamino]-ethoxy}-ethoxy)-acetyl] on the alpha amino group of the N-terminal Met) MHPIPDSSPLLQFGGQVRQRYLYTDDAQQTEAHLEIREDGTVGGAADQSPESLLQLRALRPGVIQILGVRTSRFLCQRPDGALYGSLHFDPEACSFRELLLEDGYNVYQSEAHGLPLHLPGNRSPHRDPAPRGPARFLPLPGLPPALPEPPGILAPQPPDVGSSDPLSMVGPSQGRSPSYAS', 'condition not met'),
  ('Q27E Met-FGF21 (ligand) MHPIPDSSPLLQFGGQVRQRYLYTDDAEQTEAHLEIREDGTVGGAADQSPESLLQLKALKPGVIQILGVKTSRFLCQRPDGALYGSLHFDPEACSFRELLLEDGYNVYQSEAHGLPLHLPGNKSPHRDPAPRGPARFLPLPGLPPALPEPPGILAPQPPDVGSSDPLSMVGPSQGRSPSYAS', 'condition not met'),
  ('S71C Met-FGF21 derivative of Example 13 (ligand, S-71-[1-(2-{2-[2-(2-{2-[2-(2-{2-[(S)-4-carboxy-4-(17-carboxy-heptadecanoylamino)-butyrylamino]-ethoxy}-ethoxy)-acetylamino]-ethoxy}-ethoxy)-acetylamino]-ethylcarbamoyl}-ethyl)-2,5-dioxo-pyrrolidin-3-yl] on the thiol of Cys71) MHPIPDSSPLLQFGGQVRQRYLYTDDAQQTEAHLEIREDGTVGGAADQSPESLLQLKALKPGVIQILGVKTCRFLCQRPDGALYGSLHFDPEACSFRELLLEDGYNVYQSEAHGLPLHLPGNKSPHRDPAPRGPARFLPLPGLPPALPEPPGILAPQPPDVGSSDPLSMVGPSQGRSPSYAS', 'condition not met'),
  ('(-5G, -4S, -3G, -2S, -1G, K56R, 59R, 69R, 102E, 121Q, 122R, 168L) FGF21 derivative of Example 55 (ligand, N-alpha-1-[4-(16-1H-tetrazol-5-yl-hexadecanoylsulfamoyl)-butyryl] on the N-terminal alpha amino group) GSGSGHPIPDSSPLLQFGGQVRQRYLYTDDAQQTEAHLEIREDGTVGGAADQSPESLLQLRALRPGVIQILGVRTSRFLCQRPDGALYGSLHFDPEACSFRELLLEEGYNVYQSEAHGLPLHLPGQRSPHRDPAPRGPARFLPLPGLPPALPEPPGILAPQPPDVGSSDPLSLVGPSQGRSPSYAS', 'condition not met'),
  ('(Q27E, K56R, K59R, K69R, D102T, N121Q, K122R, Y179F, A180E, S181R) Gly-FGF21 (ligand) GHPIPDSSPLLQFGGQVRQRYLYTDDAEQTEAHLEIREDGTVGGAADQSPESLLQLRALRPGVIQILGVRTSRFLCQRPDGALYGSLHFDPEACSFRELLLETGYNVYQSEAHGLPLHLPGQRSPHRDPAPRGPARFLPLPGLPPALPEPPGILAPQPPDVGSSDPLSMVGPSQGRSPSFER', 'condition met'),
  ('(-14E, -13E, -12A, -11E, -10A, -9G, -8G, -7A, -6G, -5G, -4S, -3G, -2G, -1S, K56R, 59R, 69R, 122R) FGF21 derivative of Example 51 (ligand, N-alpha-1-[(S)-4-carboxy-4-(17-carboxy-heptadecanoylamino)-butyryl] on the N-terminal alpha amino group) EEAEAGGAGGSGGSHPIPDSSPLLQFGGQVRQRYLYTDDAQQTEAHLEIREDGTVGGAADQSPESLLQLRALRPGVIQILGVRTSRFLCQRPDGALYGSLHFDPEACSFRELLLEDGYNVYQSEAHGLPLHLPGNRSPHRDPAPRGPARFLPLPGLPPALPEPPGILAPQPPDVGSSDPLSMVGPSQGRSPSYAS', 'condition met'),
  ('(Q28R, K56R, K59R, K69R, D102T, N121Q, K122R, M168L, Y179F, A180E, S181R) Gly-FGF21 (ligand) GHPIPDSSPLLQFGGQVRQRYLYTDDAQRTEAHLEIREDGTVGGAADQSPESLLQLRALRPGVIQILGVRTSRFLCQRPDGALYGSLHFDPEACSFRELLLETGYNVYQSEAHGLPLHLPGQRSPHRDPAPRGPARFLPLPGLPPALPEPPGILAPQPPDVGSSDPLSLVGPSQGRSPSFER', 'condition met'),
  ('(-1A, 71C, 121Q, 166F, 167G, 168L, 169aT, 171L, 172E, 173A, 174V, 179F, 180E, 181K) FGF21 derivative of Example 17 (ligand, S-71-({2-[2-(2-{2-[2-(2-{2-[(S)-4-carboxy-4-(17-carboxy-heptadecanoylamino)-butyrylamino]-ethoxy}-ethoxy)-acetylamino]-ethoxy}-ethoxy)-acetylamino]-ethylcarbamoyl}-methyl) on the thiol of Cys71) AHPIPDSSPLLQFGGQVRQRYLYTDDAQQTEAHLEIREDGTVGGAADQSPESLLQLKALKPGVIQILGVKTCRFLCQRPDGALYGSLHFDPEACSFRELLLEDGYNVYQSEAHGLPLHLPGQKSPHRDPAPRGPARFLPLPGLPPALPEPPGILAPQPPDVGSSDPFGLVTGLEAVRSPSFEK', 'condition not met');
